Target: RSV prefusion F (preF, DS-Cav1) (Respiratory syncytial virus)
Assay: BLI, IgG on sensor, 100 nM antigen
ATTRIBUTE MEASURED: Kd

[[record]]
binder = "ADI-41292 (antibody, V domains shown) VH: EVQLLESGGGVVQPGRSLRLSCAASGFSFSSYGIHWVRQAPGKGLECVALMSYDGSEKYYADSVKGRFTISRDNSKNTLYLHMNSLRREDTAVYYCAKGSHLRWSHLDYYFHLWGRGTLVTVSS VL: DIVMTQSPSTLSASVGDRVTITCRASQSLSTWLAWYQQKPGKAPKLLISDASNLESGVPSRFSGRGSGTEFTLTISGLQPDDFATYYCQQERTFGQGTKVDIK"
attribute_measured = "Kd"
measured_result = "883 nM"


The reported numbers originate from patent US20260258115A1.
